Subject of test: human CIC-1 channels (Homo sapiens)
Construct: host or cells: CHO cells constitutively expressing human ClC-1
Sequence (P35523 whole entry): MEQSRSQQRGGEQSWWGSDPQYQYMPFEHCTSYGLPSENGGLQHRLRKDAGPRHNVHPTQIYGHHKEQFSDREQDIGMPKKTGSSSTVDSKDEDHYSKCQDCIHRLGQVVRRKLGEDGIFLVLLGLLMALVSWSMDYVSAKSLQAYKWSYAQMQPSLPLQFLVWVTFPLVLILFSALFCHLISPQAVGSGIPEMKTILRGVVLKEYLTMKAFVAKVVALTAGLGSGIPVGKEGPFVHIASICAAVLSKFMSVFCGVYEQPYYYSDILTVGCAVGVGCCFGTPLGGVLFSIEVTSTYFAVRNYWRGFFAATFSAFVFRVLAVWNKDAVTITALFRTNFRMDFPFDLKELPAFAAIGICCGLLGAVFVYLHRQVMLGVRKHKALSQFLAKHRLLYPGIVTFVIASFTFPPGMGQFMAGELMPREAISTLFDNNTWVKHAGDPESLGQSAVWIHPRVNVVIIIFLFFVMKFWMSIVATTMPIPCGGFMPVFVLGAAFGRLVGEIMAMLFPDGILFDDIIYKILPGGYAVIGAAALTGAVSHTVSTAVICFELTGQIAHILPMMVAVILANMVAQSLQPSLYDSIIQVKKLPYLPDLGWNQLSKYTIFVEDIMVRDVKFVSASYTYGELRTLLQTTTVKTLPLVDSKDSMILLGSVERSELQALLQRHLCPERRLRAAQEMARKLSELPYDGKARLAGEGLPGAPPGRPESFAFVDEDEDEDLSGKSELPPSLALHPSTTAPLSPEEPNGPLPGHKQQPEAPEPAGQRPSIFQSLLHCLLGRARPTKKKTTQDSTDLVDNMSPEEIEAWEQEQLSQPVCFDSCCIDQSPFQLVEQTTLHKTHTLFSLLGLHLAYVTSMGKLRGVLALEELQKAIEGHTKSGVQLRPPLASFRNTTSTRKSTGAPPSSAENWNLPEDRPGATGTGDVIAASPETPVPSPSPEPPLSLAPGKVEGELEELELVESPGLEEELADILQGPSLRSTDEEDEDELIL
Assay overview: Automated patch-clamp on the human isoform of CIC-1 expressed in CHO cells
Type: cell-based
Condition description: compound added intracellularly vs control cell patches; positive shift reflects CIC-1 inhibition
Endpoint label: ΔV1/2 (mV)

Some solved entries appear below for comparison.
Smiles structure: C[C@H](Oc1ccc(Br)cc1C1CC1)C(=O)O
ΔV1/2, mV: 9.2

Smiles structure: C#Cc1cc(Br)ccc1O[C@@H](C)C(=O)O
ΔV1/2, mV: 7.7

Smiles structure: C[C@H](Oc1ccc(Cl)cc1C1CC1)C(=O)O
ΔV1/2, mV: 8.8

Smiles structure: C#Cc1cc(Cl)ccc1O[C@@H](C)C(=O)O
ΔV1/2, mV: 26.4

1. C[C@H](Oc1ccc(Br)cc1C=C(F)F)C(=O)O
2. C=Cc1cc(Br)ccc1O[C@@H](C)C(=O)O
3. CCC(=O)c1cc(Cl)ccc1O[C@@H](C)C(=O)O
Prompt: Ascending by ΔV1/2, please. Answer format: list of labels, ordered as asked.
Completion: 3, 2, 1

These measurements were taken from patent EP3723746B1.
